Target: T1, huIL-17RA-FLAG-polyHis (human, UniProt Q96F46 33-320)
T1 construct: also called IL-17RA-FLAG-pHis; wild-type IL-17RA
Assay: binning; IL-17RA held by bead mAb G
MEASURED PROPERTY: normalized MFI
// no unit, no text: just the number

Asked: Fill blank: measured normalized MFI of the binder AMH21/AML21 (antibody, IgG2, V domains shown, human mAb from IgG2 XenoMouse mice; also called AM-21; antibody Q) VH: EVQLVESGGGSVQPGGSLRLSCAASGFTFSSYSMNWVRQAPGKGLEWVSIISSRSSIIHYADSVKGRFTISRDNAKNSLYLQMNSLRDEDTAVYYCARPKVGGGMDVWGQGTTVTVSS VL: DIQMTQSPSSLSASVGDRVTITCRASQGISNYLAWYQQKPGKFPELLIYAASTLQSGVPSRFSGSGSGTDFTLTISSLQPEDVATYYCQKYNRAPFTFGPGTKVDIK is ____.
Given back: 6280

Asked: Which normalized MFI value is on record for AMH12/AML12 (antibody, IgG2, V domains shown, human mAb from IgG2 XenoMouse mice; also called AM-12; antibody M) VH: QVQLVQSGAEVKKPGASVKVSCKASGYTLTSYGISWVRQAPGQGLEWMGWISTYKGNTNYAQKLQGRVTMTTDTSTSTAYMELRSLRSDDTAVYYCARKQLVFDYWGQGTLVTVSS VL: EIVMTQSPATLSVSPGERATLSCRASQSISSSLAWYQQKPGQAPRLLIYGASTRATGIPARFSGSGSGTEFTLTISSLQSENFAVYYCQQYDNWPLTFGGGTKVEIK ?
Given back: 3280
